src = paper PMC10663500

Consider the following binders and their measured koff readings.
target: T1, human programmed cell death protein 1 (hPD-1) C93S (aa 24-167) (Homo sapiens, UniProt Q15116, C93S); assay: SPR; Carterra LSA; Fab from the ammonium sulfate precipitate of the culture supernatant immobilised on a NiHC200M chip; hPD-1 (1-1024 nM) or mPD-1-Fc (4-1024 nM) as analyte, fourfold dilution series, no regeneration; HBS-EP pH 7.4, 25 °C; medians over the spots of a construct, KD = koff/kon; conditions: one partner purified
T1 construct: made as a fusion with a TEV site and human Fc; the Fc was cut off with TEV protease; source: Expi293F, purified (Protein A, TEV cleavage of Fc, SEC; monomer fractions); not shown: Fc (human), C-terminal, cleaved
T1 sequence (Q15116 24-167 C93S): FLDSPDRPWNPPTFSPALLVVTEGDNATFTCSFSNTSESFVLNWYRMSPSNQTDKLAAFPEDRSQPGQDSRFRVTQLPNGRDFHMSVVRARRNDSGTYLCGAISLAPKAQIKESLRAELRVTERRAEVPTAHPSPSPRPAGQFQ
Express the result in s⁻¹ but write the number alone.

Examples with their reported koff follow.
| binder | unit spec | koff |
| --- | --- | --- |
| toripalimab Fab L.V99Y (Fab, V domains shown, as the heavy chain of Sm3; light chain of Sm3 with this change; numbers count from the chain's first residue; source: Brevibacillus, culture supernatant (ammonium sulfate precipitate); not shown: 6xHis, C-terminal, kept; 6xHN, C-terminal, kept) VH: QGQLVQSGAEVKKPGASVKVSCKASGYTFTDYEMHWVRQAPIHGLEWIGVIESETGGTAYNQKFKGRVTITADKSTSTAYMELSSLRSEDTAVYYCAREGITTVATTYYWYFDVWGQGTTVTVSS VL: DVVMTQSPLSLPVTLGQPASISCRSSQSIVHSNGNTYLEWYLQKPGQSPQLLIYKVSNRFSGVPDRFSGSGSGTDFTLKISRVEAEDVGVYYCFQGSHYPLTFGQGTKLEIK | s⁻¹ | 0.000155 |
| toripalimab Fab L.V99K (Fab, V domains shown, as the heavy chain of Sm3; light chain of Sm3 with this change; numbers count from the chain's first residue; source: Brevibacillus, culture supernatant (ammonium sulfate precipitate); not shown: 6xHis, C-terminal, kept; 6xHN, C-terminal, kept) VH: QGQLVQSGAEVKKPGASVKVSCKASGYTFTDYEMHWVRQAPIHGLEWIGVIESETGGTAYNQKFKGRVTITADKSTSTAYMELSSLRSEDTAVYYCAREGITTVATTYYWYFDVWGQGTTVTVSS VL: DVVMTQSPLSLPVTLGQPASISCRSSQSIVHSNGNTYLEWYLQKPGQSPQLLIYKVSNRFSGVPDRFSGSGSGTDFTLKISRVEAEDVGVYYCFQGSHKPLTFGQGTKLEIK | s⁻¹ | 0.000131 |

Sure, the documented koff for toripalimab Fab L.V99F (Fab, V domains shown, as the heavy chain of Sm3; light chain of Sm3 with this change; numbers count from the chain's first residue; source: Brevibacillus, culture supernatant (ammonium sulfate precipitate); not shown: 6xHis, C-terminal, kept; 6xHN, C-terminal, kept) VH: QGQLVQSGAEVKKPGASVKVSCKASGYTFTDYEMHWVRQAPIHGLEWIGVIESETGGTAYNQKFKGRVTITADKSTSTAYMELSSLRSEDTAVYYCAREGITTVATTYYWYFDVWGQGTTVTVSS VL: DVVMTQSPLSLPVTLGQPASISCRSSQSIVHSNGNTYLEWYLQKPGQSPQLLIYKVSNRFSGVPDRFSGSGSGTDFTLKISRVEAEDVGVYYCFQGSHFPLTFGQGTKLEIK is 4.24e-05

Sure, the documented koff for toripalimab Fab L.P100F (Fab, V domains shown, as the heavy chain of Sm3; light chain of Sm3 with this change; numbers count from the chain's first residue; source: Brevibacillus, culture supernatant (ammonium sulfate precipitate); not shown: 6xHis, C-terminal, kept; 6xHN, C-terminal, kept) VH: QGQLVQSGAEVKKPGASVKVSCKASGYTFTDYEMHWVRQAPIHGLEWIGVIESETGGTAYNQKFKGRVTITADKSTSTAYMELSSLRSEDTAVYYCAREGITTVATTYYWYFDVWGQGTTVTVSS VL: DVVMTQSPLSLPVTLGQPASISCRSSQSIVHSNGNTYLEWYLQKPGQSPQLLIYKVSNRFSGVPDRFSGSGSGTDFTLKISRVEAEDVGVYYCFQGSHVFLTFGQGTKLEIK is 6.35e-05
